Biological target: native Pfs230 (gametocyte extract) (Plasmodium falciparum NF54 (3D7 is its …, UniProt P68874))
Sequence (P68874 21-3135): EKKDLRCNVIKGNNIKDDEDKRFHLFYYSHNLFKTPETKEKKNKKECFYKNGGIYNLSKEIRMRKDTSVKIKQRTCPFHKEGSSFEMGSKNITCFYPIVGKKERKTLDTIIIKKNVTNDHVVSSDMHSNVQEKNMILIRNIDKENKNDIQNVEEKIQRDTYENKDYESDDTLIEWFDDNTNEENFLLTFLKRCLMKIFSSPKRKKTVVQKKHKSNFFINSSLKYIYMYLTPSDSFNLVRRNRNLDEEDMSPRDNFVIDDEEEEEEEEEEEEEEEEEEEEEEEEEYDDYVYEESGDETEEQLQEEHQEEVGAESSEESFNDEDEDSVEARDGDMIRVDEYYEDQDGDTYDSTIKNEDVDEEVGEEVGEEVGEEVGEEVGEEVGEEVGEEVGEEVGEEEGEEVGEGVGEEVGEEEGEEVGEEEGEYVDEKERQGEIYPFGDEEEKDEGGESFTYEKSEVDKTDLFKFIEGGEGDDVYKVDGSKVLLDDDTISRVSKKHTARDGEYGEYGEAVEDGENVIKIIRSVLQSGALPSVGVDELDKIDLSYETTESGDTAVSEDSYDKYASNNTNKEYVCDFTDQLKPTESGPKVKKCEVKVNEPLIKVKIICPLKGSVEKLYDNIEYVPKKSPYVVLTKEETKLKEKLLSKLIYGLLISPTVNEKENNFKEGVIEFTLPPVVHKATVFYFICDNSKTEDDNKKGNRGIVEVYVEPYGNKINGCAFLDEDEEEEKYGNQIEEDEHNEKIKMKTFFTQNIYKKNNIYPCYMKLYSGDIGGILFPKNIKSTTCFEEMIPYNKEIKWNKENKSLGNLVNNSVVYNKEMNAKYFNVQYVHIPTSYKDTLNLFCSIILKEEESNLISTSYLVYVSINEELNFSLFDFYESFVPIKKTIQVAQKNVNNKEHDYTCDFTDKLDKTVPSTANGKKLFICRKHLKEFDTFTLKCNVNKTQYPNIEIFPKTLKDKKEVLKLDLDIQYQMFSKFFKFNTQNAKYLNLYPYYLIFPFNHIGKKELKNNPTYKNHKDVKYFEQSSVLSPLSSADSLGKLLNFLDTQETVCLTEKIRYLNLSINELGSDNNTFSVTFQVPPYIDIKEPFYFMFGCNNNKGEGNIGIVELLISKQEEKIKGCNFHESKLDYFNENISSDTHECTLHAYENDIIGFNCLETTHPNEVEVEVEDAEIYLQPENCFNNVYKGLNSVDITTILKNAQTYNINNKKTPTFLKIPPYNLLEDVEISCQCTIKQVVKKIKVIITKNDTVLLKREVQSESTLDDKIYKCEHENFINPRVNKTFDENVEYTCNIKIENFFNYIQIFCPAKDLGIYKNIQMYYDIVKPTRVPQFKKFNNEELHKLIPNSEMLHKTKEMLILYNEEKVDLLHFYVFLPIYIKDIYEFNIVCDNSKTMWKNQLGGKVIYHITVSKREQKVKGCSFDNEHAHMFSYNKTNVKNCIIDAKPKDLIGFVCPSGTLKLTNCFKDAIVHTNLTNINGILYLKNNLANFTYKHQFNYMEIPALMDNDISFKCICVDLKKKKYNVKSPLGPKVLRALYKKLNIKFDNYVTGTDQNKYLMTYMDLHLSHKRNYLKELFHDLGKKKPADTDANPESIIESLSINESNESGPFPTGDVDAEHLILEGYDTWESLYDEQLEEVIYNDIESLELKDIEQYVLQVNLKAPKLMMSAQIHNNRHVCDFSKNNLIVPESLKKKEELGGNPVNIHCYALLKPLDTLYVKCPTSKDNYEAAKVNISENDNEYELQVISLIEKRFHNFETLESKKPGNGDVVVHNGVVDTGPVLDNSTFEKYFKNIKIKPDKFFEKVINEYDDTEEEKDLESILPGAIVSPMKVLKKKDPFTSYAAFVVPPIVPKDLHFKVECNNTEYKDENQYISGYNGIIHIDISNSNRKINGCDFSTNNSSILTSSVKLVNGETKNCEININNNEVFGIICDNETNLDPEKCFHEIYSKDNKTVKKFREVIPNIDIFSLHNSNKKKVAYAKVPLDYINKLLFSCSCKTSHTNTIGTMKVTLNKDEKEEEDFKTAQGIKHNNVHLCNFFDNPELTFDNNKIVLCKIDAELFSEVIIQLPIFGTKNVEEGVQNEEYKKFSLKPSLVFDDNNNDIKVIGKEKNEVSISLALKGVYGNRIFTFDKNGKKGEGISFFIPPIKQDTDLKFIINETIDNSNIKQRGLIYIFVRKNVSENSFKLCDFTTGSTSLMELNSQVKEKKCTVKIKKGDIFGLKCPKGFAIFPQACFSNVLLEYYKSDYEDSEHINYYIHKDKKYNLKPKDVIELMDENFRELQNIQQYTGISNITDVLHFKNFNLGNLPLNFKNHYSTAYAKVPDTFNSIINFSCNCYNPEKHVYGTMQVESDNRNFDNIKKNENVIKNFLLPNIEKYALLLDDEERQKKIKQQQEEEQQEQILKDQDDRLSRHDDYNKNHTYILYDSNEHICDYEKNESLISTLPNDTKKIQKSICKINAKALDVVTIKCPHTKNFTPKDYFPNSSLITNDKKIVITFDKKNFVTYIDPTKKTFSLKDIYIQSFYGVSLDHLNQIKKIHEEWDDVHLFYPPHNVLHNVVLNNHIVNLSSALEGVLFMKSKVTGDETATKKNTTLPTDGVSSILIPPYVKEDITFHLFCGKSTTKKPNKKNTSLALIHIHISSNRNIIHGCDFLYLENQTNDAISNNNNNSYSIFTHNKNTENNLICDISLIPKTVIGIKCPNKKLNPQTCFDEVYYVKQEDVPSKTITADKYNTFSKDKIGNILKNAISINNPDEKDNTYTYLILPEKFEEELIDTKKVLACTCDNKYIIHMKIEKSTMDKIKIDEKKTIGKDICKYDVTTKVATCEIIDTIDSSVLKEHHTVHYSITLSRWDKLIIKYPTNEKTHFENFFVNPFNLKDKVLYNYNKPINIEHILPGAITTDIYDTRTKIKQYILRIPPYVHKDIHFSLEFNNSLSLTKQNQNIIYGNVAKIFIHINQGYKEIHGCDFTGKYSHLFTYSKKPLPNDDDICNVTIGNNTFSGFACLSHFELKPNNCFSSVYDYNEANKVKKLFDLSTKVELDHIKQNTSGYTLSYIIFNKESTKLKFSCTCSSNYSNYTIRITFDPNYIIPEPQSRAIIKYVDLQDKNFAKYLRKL
Experiment: […]; 5 μg/ml mAb in PBST; […]
Settings: one partner purified
experimental-readout: binding result

Enquiry: Answer with reported binding result of RUPA-39 (antibody, V domains shown, also called RUPA-39 (IgG1)) VH: DVQLVESGGGLVKPGGSLRLSCAASGFTFSSYTMNWVRQAPGKGLEWVSSISTNIRYIYYADSVKGRFTISRDNAKNSLFLQMDSLRAEDTAVYYCATIAGPLSLKGDFYFDSWGQGTLVTVSS VL: EIVMTQSPATLSVSPGERATLSCRASQSVSSSLAWYQQKPGQAPRLLIHGASTRATGIPTRFSGSGSGTEFTLTISSLQSEDFAVYYCQQYANWPPWTFGQGTKVESK
Return: binds

Enquiry: Answer with reported binding result of RUPA-103 (antibody, V domains shown, also called RUPA-103 (IgG1)) VH: EVQLVESGGGLVKPGGSLRLSCAASGFTFSSYSMNWVRQAPGKGLEWVSSISSGSSYKYYSDSVKGRFTISRDNAKNSLYLQMNTLRAEDTAVYYCARAPEPGLLWFGEWGDYWGQGTLVTVSS VL: EIVLTQSPVTLSLSPGERATLSCRASQSISSSLAWYQQKPGQAPRLLIYDASNRATGIPARFSGSGSGTDFTLTISSLEPEDFAVYYCQQRSIWPPITFGQGTRLEIQ
Return: binds

Enquiry: Answer with reported binding result of RUPA-32 (antibody, V domains shown, also called RUPA-32 (IgG1)) VH: EVQLVESGGGLVKPGGSLRLSCAASGFAFSTYAMSWVRQAPGKGLEWVSSISESSSYTYYTDSVKGRFTISRDNAKKSLFLHMNSLRAEDTAVYYCARSDGLSMIAAPFDYWGQGARVTVSS VL: EIVLTQSPATLSLSPGERATLSCRTSQSLSISLVWYQQKPGQAPRLLISDASNRAPGIPARFSASGSGTDFTLTISSLEPEDFAVYYCQQRSNWPPITFGQGTRLEMK
Return: binds
